Target: T1, His10/Avi Human IL33-01 (human)
T1 chain: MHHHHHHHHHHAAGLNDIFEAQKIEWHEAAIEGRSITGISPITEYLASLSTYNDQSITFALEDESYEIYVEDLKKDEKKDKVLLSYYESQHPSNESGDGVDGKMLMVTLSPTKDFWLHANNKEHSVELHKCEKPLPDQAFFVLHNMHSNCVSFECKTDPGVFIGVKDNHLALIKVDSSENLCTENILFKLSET
Test: cell-based or functional assay
Observed Property: IC50, Huvec IL-8 assay vs. His Avi IL-33
# number then unit; no other words

- Binder: "33_640086-6 IgG1 (antibody, V domains shown, IgG1) VH: EVQLLESGGGLVQPGGSLRLSCAASGFTFSSYAMSWVRQAPGKGLEWVSGISGIDTSTYYADSVKGRFTISRDNSKNTLYLQMNSLRAEDTAVYYCARDKFMQLWGGGLRYPFGYWGQGTMVTVSS VL: SYVLTQPPSVSVSPGQTASITCSGERMGDKYAAWYQQKPGQSPVLVIYRDTKRPSGIPERFSGSNSGNTATLTISGTQAMDEADYYCEVKVKDTGVFGGGTKVTVL"
  IC50, Huvec IL-8 assay vs. His Avi IL-33: "0.026 nM"

Read the next record carefully.
Looking up 33_640084-2 IgG1 (antibody, V domains shown, IgG1) VH: EVQLLESGGGLVQPGGSLRLSCAASGFAFSSYAMSWVRQAPGKGLEWVSAISGSGGSTYYADSVKGRFTISRDNSKNTLYLQMNSLRAEDTAVYYCARQKFMQLWGGGLRYPFGYWGQGTMVTVSS VL: SYVLTQPPSVSVSPGQTASITCSGERMGDKYAAWYQQKPGQSPVLVIYRDTKRPSGIPERFSGSNSGNTATLTISGTQAMDEADYYCQVWRDDSPIFGGGTKVTVL , I found its IC50, Huvec IL-8 assay vs. His Avi IL-33 recorded as 0.036 nM
